Values compiled from ChEMBL document CHEMBL4765237.

target-entity: Receptor-type tyrosine-protein kinase FLT3 (Homo sapiens, UniProt P36888)
Sequence (P36888 whole entry): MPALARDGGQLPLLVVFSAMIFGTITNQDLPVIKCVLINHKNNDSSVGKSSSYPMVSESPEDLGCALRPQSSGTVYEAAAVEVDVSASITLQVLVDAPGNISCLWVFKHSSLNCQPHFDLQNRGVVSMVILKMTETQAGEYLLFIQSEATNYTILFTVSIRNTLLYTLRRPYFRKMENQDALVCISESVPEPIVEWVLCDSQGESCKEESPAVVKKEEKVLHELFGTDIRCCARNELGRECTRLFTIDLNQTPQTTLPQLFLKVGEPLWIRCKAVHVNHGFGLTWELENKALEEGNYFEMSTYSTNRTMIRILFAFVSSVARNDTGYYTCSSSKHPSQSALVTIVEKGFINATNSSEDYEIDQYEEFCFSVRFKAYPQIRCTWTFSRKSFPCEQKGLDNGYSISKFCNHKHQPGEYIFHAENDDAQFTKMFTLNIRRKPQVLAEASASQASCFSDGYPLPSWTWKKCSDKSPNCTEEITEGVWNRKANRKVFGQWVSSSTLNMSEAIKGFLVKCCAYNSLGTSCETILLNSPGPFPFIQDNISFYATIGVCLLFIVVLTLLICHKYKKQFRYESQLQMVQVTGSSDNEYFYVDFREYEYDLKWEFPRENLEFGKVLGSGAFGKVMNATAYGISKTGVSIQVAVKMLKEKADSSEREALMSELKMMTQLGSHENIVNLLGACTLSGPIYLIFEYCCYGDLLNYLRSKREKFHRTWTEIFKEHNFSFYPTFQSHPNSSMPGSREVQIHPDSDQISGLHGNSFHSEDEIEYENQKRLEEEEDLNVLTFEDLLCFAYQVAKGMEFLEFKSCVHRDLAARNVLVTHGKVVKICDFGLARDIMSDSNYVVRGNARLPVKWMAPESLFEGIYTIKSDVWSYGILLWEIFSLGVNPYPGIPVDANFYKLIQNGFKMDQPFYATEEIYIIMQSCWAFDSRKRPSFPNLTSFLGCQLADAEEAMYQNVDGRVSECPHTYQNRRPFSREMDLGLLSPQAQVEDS
protocol-description: Inhibition of recombinant human FLT3 (564 to end residues) using EAIYAAPFAKKK as substrate incubated for 40 mins in presence of [gamma-33ATP] by scintillation counting based radiometry assay
pIC50: −log10 of the molar value.

structure-as-smiles | pIC50
CC(C)(C)c1cc(NC(=O)Nc2ccc(Nc3ncnc4c3OCCCN4)cc2)no1 | 7.89

* * *

Record set of IC50 for target or system Proto-oncogene tyrosine-protein kinase receptor Ret (Homo sapiens, UniProt P07949, V804M).

structure-as-smiles | IC50 / nM
O=C(Nc1ccc(Br)cc1)Nc1ccc(Nc2ncnc3c2OCCN3)cc1 | 2350
CC(C)(C)c1cc(NC(=O)Nc2ccc(Nc3ncnc4c3OCCCN4)cc2)no1 | 15
Cc1cc(C)cc(NC(=O)Nc2ccc(Nc3ncnc4c3OCCN4)cc2)c1 | 971
CC(C)(C)c1cc(NC(=O)Nc2cccc(Nc3ncnc4c3OCCN4)c2)no1 | 3450
COc1cc(NC(=O)Nc2cc(C(C)(C)C)on2)ccc1Nc1ncnc2c1OCCN2 | 33
